target: Urotensin-2 receptor (Homo sapiens); assay: Bias factor, ratio of deltalog(Tau/KA) for agonist activity at human UT receptor expressed in HEK293 cells co-expressing Gq-polycistronic BRET biosensor assessed as induction of Gq activation by luminescence detection based BRET assay to deltalog(Tau/KA) for agonist activity at human UT receptor expressed in HEK293 cells co-expressing beta-arrestin1-polycistronic BRET biosensor assessed as induction of beta-arrestin1 recruitment by luminescence detection based BRET assay; assay type: functional, cell-based
Recorded Endpoint: fold change (FC)

{"Smiles Input": "CC(C)[C@H](NC(=O)[C@@H]1CSSC[C@H](NC(=O)[C@H](C)N)C(=O)N[C@@H](Cc2ccc(C#Cc3ccccc3)cc2)C(=O)N[C@@H](Cc2c[nH]c3ccccc23)C(=O)N[C@@H](CCCCN)C(=O)N[C@@H](Cc2ccc(O)cc2)C(=O)N1)C(=O)O", "Endpoint Value": 0.9}
{"Smiles Input": "CC(C)[C@H](NC(=O)[C@@H]1CSSC[C@H](NC(=O)[C@@H](C)N)C(=O)N[C@@H](Cc2ccc(C#Cc3ccccc3)cc2)C(=O)N[C@@H](Cc2c[nH]c3ccccc23)C(=O)N[C@@H](CCCCN)C(=O)N[C@@H](Cc2ccc(O)cc2)C(=O)N1)C(=O)O", "Endpoint Value": 0.5}
{"Smiles Input": "CC(C)[C@H](NC(=O)[C@@H]1CSSC[C@H](NC(=O)[C@@H](C)N)C(=O)N[C@@H](Cc2ccc(-c3ccccc3)cc2)C(=O)N[C@@H](Cc2c[nH]c3ccccc23)C(=O)N[C@@H](CCCCN)C(=O)N[C@@H](Cc2ccc(O)cc2)C(=O)N1)C(=O)O", "Endpoint Value": 0.1}
{"Smiles Input": "CC(C)[C@H](NC(=O)[C@@H]1CSSC[C@H](NC(=O)[C@H](C)N)C(=O)N[C@@H](Cc2ccccc2)C(=O)N[C@@H](Cc2c[nH]c3ccccc23)C(=O)N[C@@H](CCCCN)C(=O)N[C@@H](Cc2ccc(O)cc2)C(=O)N1)C(=O)O", "Endpoint Value": 1}
{"Smiles Input": "CC(C)[C@H](NC(=O)[C@@H]1CSSC[C@H](NC(=O)[C@H](C)N)C(=O)N[C@@H](Cc2ccc(I)cc2)C(=O)N[C@@H](Cc2c[nH]c3ccccc23)C(=O)N[C@@H](CCCCN)C(=O)N[C@@H](Cc2ccc(O)cc2)C(=O)N1)C(=O)O", "Endpoint Value": 0.5}

====

Here the recorded EC50 is given for each entry.
molecular target: UniProtKB Q9UKP6; assay: Agonist activity at human UT receptor expressed in HEK293 cells co-expressing beta-arrestin1-polycistronic BRET biosensor assessed as induction of beta-arrestin1 recruitment measured for 5 mins by luminescence detection based BRET assay; type: functional, cell-based

{"Smiles Input": "CC(C)[C@H](NC(=O)[C@@H]1CSSC[C@H](NC(=O)[C@H](C)N)C(=O)N[C@@H](Cc2ccccc2)C(=O)N[C@@H](Cc2c[nH]c3ccccc23)C(=O)N[C@@H](CCCCN)C(=O)N[C@@H](Cc2ccc(O)cc2)C(=O)N1)C(=O)O", "EC50 / nM": 145}
{"Smiles Input": "CC(C)[C@H](NC(=O)[C@@H]1CSSC[C@H](NC(=O)[C@@H](N)CC(=O)O)C(=O)N[C@H](Cc2ccc(I)cc2)C(=O)N[C@@H](Cc2c[nH]c3ccccc23)C(=O)N[C@@H](CCCCN)C(=O)N[C@@H](Cc2ccc(O)cc2)C(=O)N1)C(=O)O", "EC50 / nM": 347}
{"Smiles Input": "CC(C)[C@H](NC(=O)[C@@H]1CSSC[C@H](NC(=O)[C@H](C)N)C(=O)N[C@H](Cc2ccc(-c3ccccc3)cc2)C(=O)N[C@@H](Cc2c[nH]c3ccccc23)C(=O)N[C@@H](CCCCN)C(=O)N[C@@H](Cc2ccc(O)cc2)C(=O)N1)C(=O)O", "EC50 / nM": 1150}
{"Smiles Input": "CC(C)[C@H](NC(=O)[C@@H]1CSSC[C@H](NC(=O)[C@H](C)N)C(=O)N[C@H](Cc2ccc(I)cc2)C(=O)N[C@@H](Cc2c[nH]c3ccccc23)C(=O)N[C@@H](CCCCN)C(=O)N[C@@H](Cc2ccc(O)cc2)C(=O)N1)C(=O)O", "EC50 / nM": 355}
{"Smiles Input": "CC(C)[C@H](NC(=O)[C@@H]1CSSC[C@H](NC(=O)[C@H](C)N)C(=O)N[C@H](Cc2ccc(C#Cc3ccccc3)cc2)C(=O)N[C@@H](Cc2c[nH]c3ccccc23)C(=O)N[C@@H](CCCCN)C(=O)N[C@@H](Cc2ccc(O)cc2)C(=O)N1)C(=O)O", "EC50 / nM": 3310}

====

Target: Urotensin-2 receptor (Homo sapiens)
Sequence (whole entry): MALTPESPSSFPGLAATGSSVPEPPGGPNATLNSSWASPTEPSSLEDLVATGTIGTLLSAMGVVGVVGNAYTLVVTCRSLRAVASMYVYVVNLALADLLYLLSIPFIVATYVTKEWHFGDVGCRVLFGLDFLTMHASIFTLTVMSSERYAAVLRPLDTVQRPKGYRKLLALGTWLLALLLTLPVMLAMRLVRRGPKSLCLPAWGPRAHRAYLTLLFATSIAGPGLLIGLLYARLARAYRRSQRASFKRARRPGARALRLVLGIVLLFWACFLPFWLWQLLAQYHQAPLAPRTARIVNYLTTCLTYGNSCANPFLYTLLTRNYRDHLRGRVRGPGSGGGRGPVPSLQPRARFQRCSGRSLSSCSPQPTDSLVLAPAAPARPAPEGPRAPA
Test: Selectivity index, change in deltalog(Tau/KA) for agonist activity at human UT receptor expressed in HEK293 cells co-expressing beta-arrestin1-polycistronic BRET biosensor assessed as induction of beta-arrestin1 recruitment by luminescence detection based BRET assay to deltalog(Tau/KA) for agonist activity at human UT receptor expressed in HEK293 cells co-expressing G12-polycistronic BRET biosensor assessed as induction of G12 activation by luminescence detection based BRET assay to
Type: functional, cell-based
Rule: class 1 for deltadeltalog(Tau/KA) (beta-arrestin1 selectivity index) not less than 0, class 0 for anything less.

{"Smiles Input": "CC(C)[C@H](NC(=O)[C@@H]1CSSC[C@H](NC(=O)[C@@H](C)N)C(=O)N[C@@H](Cc2ccc(-c3ccccc3)cc2)C(=O)N[C@@H](Cc2c[nH]c3ccccc23)C(=O)N[C@@H](CCCCN)C(=O)N[C@@H](Cc2ccc(O)cc2)C(=O)N1)C(=O)O", "System Name": "Urotensin-2 receptor (Homo sapiens)", "Class Label": "class 0"}
{"Smiles Input": "CC(C)[C@H](NC(=O)[C@@H]1CSSC[C@H](NC(=O)[C@H](C)N)C(=O)N[C@@H](Cc2ccc(-c3ccccc3)cc2)C(=O)N[C@@H](Cc2c[nH]c3ccccc23)C(=O)N[C@@H](CCCCN)C(=O)N[C@@H](Cc2ccc(O)cc2)C(=O)N1)C(=O)O", "System Name": "Urotensin-2 receptor (Homo sapiens)", "Class Label": "class 0"}
{"Smiles Input": "CC(C)[C@H](NC(=O)[C@@H]1CSSC[C@H](NC(=O)[C@@H](C)N)C(=O)N[C@@H](Cc2ccc(I)cc2)C(=O)N[C@@H](Cc2c[nH]c3ccccc23)C(=O)N[C@@H](CCCCN)C(=O)N[C@@H](Cc2ccc(O)cc2)C(=O)N1)C(=O)O", "System Name": "Urotensin-2 receptor (Homo sapiens)", "Class Label": "class 1"}
{"Smiles Input": "CC(C)[C@H](NC(=O)[C@@H]1CSSC[C@H](NC(=O)[C@@H](N)CC(=O)O)C(=O)N[C@@H](Cc2ccc(I)cc2)C(=O)N[C@@H](Cc2c[nH]c3ccccc23)C(=O)N[C@@H](CCCCN)C(=O)N[C@@H](Cc2ccc(O)cc2)C(=O)N1)C(=O)O", "System Name": "Urotensin-2 receptor (Homo sapiens)", "Class Label": "class 0"}
{"Smiles Input": "CC(C)[C@H](NC(=O)[C@@H]1CSSC[C@H](NC(=O)[C@H](C)N)C(=O)N[C@@H](Cc2ccc(C#Cc3ccccc3)cc2)C(=O)N[C@@H](Cc2c[nH]c3ccccc23)C(=O)N[C@@H](CCCCN)C(=O)N[C@@H](Cc2ccc(O)cc2)C(=O)N1)C(=O)O", "System Name": "Urotensin-2 receptor (Homo sapiens)", "Class Label": "class 0"}
{"Smiles Input": "CC(C)[C@H](NC(=O)[C@@H]1CSSC[C@H](NC(=O)[C@H](C)N)C(=O)N[C@@H](Cc2ccc(I)cc2)C(=O)N[C@@H](Cc2c[nH]c3ccccc23)C(=O)N[C@@H](CCCCN)C(=O)N[C@@H](Cc2ccc(O)cc2)C(=O)N1)C(=O)O", "System Name": "Urotensin-2 receptor (Homo sapiens)", "Class Label": "class 1"}

====

Here the recorded Emax is given for each entry.
target: Urotensin-2 receptor (Homo sapiens); assay: Agonist activity at human UT receptor expressed in HEK293 cells co-expressing G12-polycistronic BRET biosensor assessed as induction of G12 activation measured for 5 mins by luminescence detection based BRET assay relative to 10 uM URP; assay type: functional, cell-based

{"Smiles Input": "CC(C)[C@H](NC(=O)[C@@H]1CSSC[C@H](NC(=O)[C@H](C)N)C(=O)N[C@@H](Cc2ccc(C#Cc3ccccc3)cc2)C(=O)N[C@@H](Cc2c[nH]c3ccccc23)C(=O)N[C@@H](CCCCN)C(=O)N[C@@H](Cc2ccc(O)cc2)C(=O)N1)C(=O)O", "Output Unit": "%", "Emax": 78}
{"Smiles Input": "CC(C)[C@H](NC(=O)[C@@H]1CSSC[C@H](NC(=O)[C@H](C)N)C(=O)N[C@@H](Cc2ccc(-c3ccccc3)cc2)C(=O)N[C@@H](Cc2c[nH]c3ccccc23)C(=O)N[C@@H](CCCCN)C(=O)N[C@@H](Cc2ccc(O)cc2)C(=O)N1)C(=O)O", "Output Unit": "%", "Emax": 80}
{"Smiles Input": "CC(C)[C@H](NC(=O)[C@@H]1CSSC[C@H](NC(=O)[C@H](N)CC(=O)O)C(=O)N[C@@H](Cc2ccc(I)cc2)C(=O)N[C@@H](Cc2c[nH]c3ccccc23)C(=O)N[C@@H](CCCCN)C(=O)N[C@@H](Cc2ccc(O)cc2)C(=O)N1)C(=O)O", "Output Unit": "%", "Emax": 91}
{"Smiles Input": "CC(C)[C@H](NC(=O)[C@@H]1CSSC[C@H](NC(=O)[C@H](C)N)C(=O)N[C@@H](Cc2ccc(I)cc2)C(=O)N[C@@H](Cc2c[nH]c3ccccc23)C(=O)N[C@@H](CCCCN)C(=O)N[C@@H](Cc2ccc(O)cc2)C(=O)N1)C(=O)O", "Output Unit": "%", "Emax": 73}
